- Experimental target: BCL2 WT (Homo sapiens (Human))
- Assay procedure: TR-FRET competitive binding assay, BCL2 WT
- Measurement conditions: Ki determined from IC50, read-out: TR_FRET EKI_Bcl2 WT
- Experimental: The relative binding potency of each compound was determined in a competitive binding assay using time resolved-fluorescence resonance energy transfer (TR-FRET). […] The degree of binding or corresponding compound inhibition can be quantified by the TR-FRET signal between the terbium donor and fluorescein acceptor. […] TR-FRET measurements were performed on a Biotek Synergy Neo plate reader. […] The TR-FRET signal was calculated as the emission-ratio at 520 nm over 495 nm. […]
pKi overview
Scale: negative log10 of molar concentration, which is what pKi denotes.

Check out these entries, answers already filled in.
COCC(=O)N1CCc2cc(-c3cc(C(=O)N(c4ccccc4)c4cc(C#N)n(C)c4C)c(C)n3C)c(C(=O)N3Cc4ccccc4C[C@H]3CN3CCCCC3)cc2C1 [Example 189]: 9.72
COc1ncc(N(C(=O)c2cc(-c3cc4c(cc3C(=O)N3Cc5ccccc5C[C@H]3C)CN(C(=O)Cc3ccc(OCCN5CCOCC5)cc3F)CC4)n(C)c2C)c2ccc(O)cc2)cc1F [Example 111]: 9.82
Cc1c(N(C(=O)c2cc(-c3cc4c(cc3C(=O)N3Cc5ccccc5C[C@H]3CN3CCCCC3)CN(C(=O)Cc3ccc(OCCN5CCN(CCF)CC5)cc3)CC4)n(C)c2C)c2ccc(O)cc2)cc(C#N)n1C [Example 122]: 10.30

Need pKi of Cc1c(N(C(=O)c2cc(-c3cc4c(cc3C(=O)N3Cc5ccccc5C[C@H]3CN3CCCC3)CN(C(=O)Cc3c(F)cc(OCCN5CCOCC5)cc3F)CC4)n(C)c2C)c2ccc(O)cc2)cc(C#N)n1C [Example 171] , thanks.
10.70

Try this compound too: Cc1c(C(=O)N(c2ccc(O)cc2)c2cc(C#N)n(C(F)F)c2C)cc(-c2cc3c(cc2C(=O)N2Cc4ccccc4C[C@H]2C)CN(C(=O)Cc2ccc(OCCN4CCOCC4)cc2F)CC3)n1C [Example 94]
9.66

====

- Assay procedure: Pharmacokinetics in SCID mice
- Format: in vivo
- Measurement conditions: 25 mg/kg IV bolus, concentration at the end of bolus administration
Recorded measurements of PK parameters Cinf, one per entry

Given the compound `Cc1c(N(C(=O)c2cc(-c3cc4c(cc3C(=O)N3Cc5ccccc5C[C@H]3C)CN(C(=O)Cc3ccc(OCCN5CCOCC5)cc3)CC4)n(C)c2C)c2ccc(O)cc2)cc(C#N)n1C` , what is its reported PK parameters Cinf?
21.0 µM

Same again, this time with `Cc1c(N(C(=O)c2cc(-c3cc4c(cc3C(=O)N3Cc5ccccc5C[C@H]3C)CN(C(=O)Cc3ccc(N5CCN6CCOC[C@@H]6C5)cc3F)CC4)n(C)c2C)c2ccc(O)cc2)cc(C#N)n1C`
40.8 µM

Entry to check: `Cc1c(N(C(=O)c2cc(-c3cc4c(cc3C(=O)N3Cc5ccccc5C[C@H]3C)CN(C(=O)Cc3ccc(C5CCN(CCF)CC5)c(F)c3)CC4)n(C)c2C)c2ccc(O)cc2)cc(C#N)n1C`
18.2 µM

====

- Experimental target: BCL2 WT (Homo sapiens (Human))
- Assay procedure: TR-FRET competitive binding assay, BCL2 WT
- Measurement conditions: Ki determined from IC50, read-out: TR_FRET EKI_Bcl2 WT
- Procedure: The relative binding potency of each compound was determined in a competitive binding assay using time resolved-fluorescence resonance energy transfer (TR-FRET). […] The degree of binding or corresponding compound inhibition can be quantified by the TR-FRET signal between the terbium donor and fluorescein acceptor. […] TR-FRET measurements were performed on a Biotek Synergy Neo plate reader. […] The TR-FRET signal was calculated as the emission-ratio at 520 nm over 495 nm. […]
Experimental readout: Ki (nM)
Answer with a number only, understood to be in nM.

Solved entries:
Cc1c(N(C(=O)c2cc(-c3cc4c(cc3C(=O)N3Cc5ccccc5C[C@H]3CN3CCCCC3)CN(C(=O)Cc3ccc(OCCN(C)C5COC5)cc3)CC4)n(C)c2C)c2ccc(O)cc2)cc(C#N)n1C: 0.05
Cc1c(C(=O)N(c2ccc(O)cc2)c2cnc3c(cnn3C)c2)cc(-c2cc3c(cc2C(=O)N2Cc4ccccc4C[C@H]2C)CN(C(=O)Cc2ccc(OCCN4CCOCC4)cc2)CC3)n1C: 0.06
Cc1c(C(=O)N(c2ccccc2)c2cnn(C)c2)cc(-c2cc3c(cc2C(=O)N2Cc4ccccc4C[C@H]2C)CN(C(=O)Cc2ccc(OCCN4CCOCC4)cc2F)CC3)n1C: 0.02
COC[C@@H]1Cc2ccccc2CN1C(=O)c1cc2c(cc1-c1cc(C(=O)N(c3ccccc3)c3cnn(C(F)F)c3)c(C)n1C)CCN(C(=O)Cc1ccc(OCCN3CCOCC3)cc1)C2: 0.07
Cc1c(N(C(=O)c2cc(-c3cc4c(cc3C(=O)N3Cc5ccccc5C[C@H]3CN3CCCCC3)CN(C(=O)Cc3ccc(OCC(C)N5CCOCC5)cc3)CC4)n(C)c2C)c2ccc(O)cc2)cc(C#N)n1C (single isomer, unassigned) [Example 127]: 0.05

With those in mind, consider the next compound.
May I ask what Ki has been recorded for `Cc1c(N(C(=O)c2cc(-c3cc4c(cc3C(=O)N3Cc5ccccc5C[C@H]3CN3CCCCC3)CN(C(=O)Cc3ccc(OCCN5CCOC(C)(C)C5)cc3)CC4)n(C)c2C)c2ccc(O)cc2)cc(C#N)n1C` ?
0.16

====

- Experimental target: BCL2 G101V (Homo sapiens, UniProt P10415, G101V)
- Assay procedure: TR-FRET competitive binding assay, BCL2 G101V
- Measurement conditions: BCL2 G101V; Ki determined from IC50; read-out: TR_FRET EKI_Bcl2 G101V
Experimental readout: Ki (nM)
Response body: numeric value in nM, unit text excluded.

Cc1c(C(=O)N(c2ccc(O)cc2)c2cc(C#N)n(CC3CCOC3)c2C)cc(-c2cc3c(cc2C(=O)N2Cc4ccccc4C[C@H]2C)CN(C(=O)Cc2ccc(OCCN4CCOCC4)cc2F)CC3)n1C (single isomer, unassigned) [Example 84]: 1
Cc1c(N(C(=O)c2cc(-c3cc4c(cc3C(=O)N3Cc5ccccc5C[C@H]3CN)CN(C(=O)Cc3ccc(OCCN5CCOCC5)cc3F)CC4)n(C)c2C)c2ccc(O)cc2)cc(C#N)n1C [Example 230]: 0.067
Cc1c(N(C(=O)c2cc(-c3cc4c(cc3C(=O)N3Cc5ccccc5C[C@H]3CN3C[C@H]5C[C@H]5C3)CN(C(=O)Cc3ccc(OCCN5CCOCC5)cc3F)CC4)n(C)c2C)c2ccc(O)cc2)cc(C#N)n1C [Example 120]: 0.5
Cc1c(N(C(=O)c2cc(-c3cc4c(cc3C(=O)N3Cc5ccccc5C[C@H]3CN3CCCCC3)CN(C(=O)COc3ccccc3)CC4)n(C)c2C)c2ccc(O)cc2)cc(C#N)n1C [Example 133]: 0.6
Cc1c(N(C(=O)c2cc(-c3cc4c(cc3C(=O)N3Cc5ccccc5C[C@H]3C)CN(C(=O)Cc3ccc([C@H]5C[C@@H]5N5CCOCC5)cc3F)CC4)n(C)c2C)c2ccc(O)cc2)cc(C#N)n1C (single isomer, unassigned) [Example 70]: 0.9

Request body: readout Ki, system BCL2 G101V (Homo sapiens, UniProt P10415, G101V), query Cc1c(N(C(=O)c2cc(-c3cc4c(cc3C(=O)N3Cc5ccccc5C[C@H]3CN3CCCCC3)CN(C(=O)Cc3ccc(OCCN5CCOCC5)cc3Cl)CC4)n(C)c2C)c2ccc(O)cc2)cc(C#N)n1C [Example 161] . Return the value.
0.3

Same lookup for Cc1c(C(=O)N(c2ccccc2)c2cnc3c(cnn3C)c2)cc(-c2cc3c(cc2C(=O)N2Cc4ccccc4C[C@H]2C)CN(C(=O)Cc2ccc(OCCN4CCOCC4)cc2F)CC3)n1C [Example 194] , please.
1

Now the molecule Cc1c(C(=O)N(c2ccc(O)cc2)c2cc(C#N)n(C(F)F)c2C)cc(-c2cc3c(cc2C(=O)N2Cc4ccccc4C[C@H]2CN2CCCCC2)CN(C(=O)Cc2ccc(OCCN4CCC(F)CC4)cc2F)CC3)n1C [Example 158]
0.9

Next molecule up: Cc1c(N(C(=O)c2cc(-c3cc4c(cc3C(=O)N3Cc5ccccc5C[C@H]3C)CN(C(=O)Cc3ccc(N5CCN6CCOC[C@@H]6C5)cc3F)CC4)n(C)c2C)c2ccc(O)cc2)cc(C#N)n1C [Example 45]
0.4

Now give it for COc1ncc(N(C(=O)c2cc(-c3cc4c(cc3C(=O)N3Cc5ccccc5C[C@H]3C)CN(C(=O)Cc3ccc(OCCN5CCOCC5)cc3)CC4)n(C)c2C)c2ccccc2)cc1F [Example 183] too.
5.6

Try this molecule too: Cc1c(N(C(=O)c2cc(-c3cc4c(cc3C(=O)N3Cc5ccccc5C[C@H]3C)CN(C(=O)Cc3ccc(F)cc3)CC4)n(C)c2C)c2ccc(O)cc2)cc(C#N)n1C [Example 5]
1.3

Moving on to the next molecule: Cc1c(N(C(=O)c2cc(-c3cc4c(cc3C(=O)N3Cc5ccccc5C[C@H]3CN3CCCCC3)CN(C(=O)Cc3cc(F)c(OCCN5CCOCC5)cc3F)CC4)n(C)c2C)c2ccc(O)cc2)cc(C#N)n1C [Example 83]
0.9

Record: Cc1c(N(C(=O)c2cc(-c3cc4c(cc3C(=O)N3Cc5ccccc5C[C@H]3CN3CCCCC3)CN(C(=O)Cc3c(F)cc(OCCN5CCOCC5)cc3F)CC4)n(C)c2C)c2ccc(O)cc2)cc(C#N)n1C [Example 97]
0.2

Now the same for COc1ncc(N(C(=O)c2cc(-c3cc4c(cc3C(=O)N3Cc5ccccc5C[C@H]3C)CN(C(=O)Cc3ccc(OCCN(C)C)cc3F)CC4)n(C)c2C)c2ccccc2)cc1F [Example 219]
4.6

And for Cc1c(C(=O)N(c2ccc(O)cc2)c2cc(C#N)n(CCN(C)C3CC3)c2C)cc(-c2cc3c(cc2C(=O)N2Cc4ccccc4C[C@H]2C)CN(C(=O)Cc2ccccc2)CC3)n1C [Example 22] ?
1

Query Cc1c(N(C(=O)c2cc(-c3cc4c(cc3C(=O)N3Cc5ccccc5C[C@H]3CN3CCCC3)CN(C(=O)Cc3c(F)cc(OCCN5CCOCC5)cc3F)CC4)n(C)c2C)c2ccc(O)cc2)cc(C#N)n1C [Example 171] next
0.2
